FYI, the data here is from the supplement of paper PMC10981050.

system: OCI-AML2; assay: cell viability relative to vehicle control; higher = less cytotoxic; conditions: 10 µM; SRSF2 genotype: wt/wt;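 further: after 48 h exposure read by CellTiter-Glo luminescence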
Structures can show the parent of a compound that is named as a salt.

| Compound | cell viability |
| --- | --- |
| CN1CCC(COc2cnc(-c3cccc(Cn4nc(-c5cccc(C#N)c5)ccc4=O)c3)nc2)CC1 | 52.8% |
| COc1nc(N)nc2c1ncn2[C@@H]1O[C@H](CO)[C@@H](O)[C@@H]1O | 94.5% |
| COc1ccc(-c2ccc3c(N4CCOCC4)nc(N4C[C@@H](C)O[C@@H](C)C4)nc3n2)cc1CO | 34.5% |
| Cc1cc(Nc2ncnc3ccc(NC4=NC(C)(C)CO4)cc23)ccc1Oc1ccn2ncnc2c1 | 73.7% |
| CC(=O)Nc1nc(-c2cccc(NS(=O)(=O)c3cccc4c(N(C)C)cccc34)c2)cs1 | 40.5% |
| CCCCC(=O)O[C@H]1CC[C@H]2[C@@H]3CCc4cc(O)ccc4[C@H]3CC[C@]12C [Estradiol valerate] | 30.4% |
| O=c1ccc2ccc(O)cc2[nH]1 [7-Hydroxycarbostyril] | 107% |
| CCCNC(C)C(=O)Nc1ccccc1C (centres undefined) | 90.7% |
| CC(=O)OCc1ccccc1 [Benzyl acetate] | 98.4% |
| CC(O)C(O)c1cnc2nc(N)[nH]c(=O)c2n1 (centres undefined) | 104% |
| CC(=NNC(=S)N1CCC1)c1ccccn1 | 9.98% |
| CCS(=O)(=O)CCn1c([N+](=O)[O-])cnc1C | 102% |
| CC(=O)Nc1ccc(OC(=O)c2ccccc2OC(C)=O)cc1 [Benorylate] | 108% |
| C[C@@H](O)[C@H]1C(=O)N2C(C(=O)OCOC(=O)C(C)(C)C)=C(SC3CN(C4=NCCS4)C3)[C@H](C)[C@H]12 | 97.2% |
| CCN(CC)Cc1cc(Nc2ccnc3cc(Cl)ccc23)ccc1O [Amodiaquine hydrochloride] | 33.4% |
| C1CCN2C[C@@H]3C[C@@H](CN4CCCC[C@@H]34)[C@H]2C1 | 94.3% |
| Cc1cc(=O)oc2c(C=O)c(O)ccc12 | 98.3% |
| COc1ccc(CCC(=O)N(c2nccc3ccccc23)[C@@H]2CCCNC2)cc1 | 91.2% |
| CCOC(=O)C1=C(N)Oc2ccc(Br)cc2C1C(C#N)C(=O)OCC (centres undefined) | 66% |

* * *

Readings of cell viability for the listed compounds
test system: K562; experiment: cell viability relative to vehicle control; higher = less cytotoxic; conditions: 10 µM; SRSF2 genotype: SRSF2 wt/wt
Structures can show the parent of a compound that is named as a salt.
Reported metric: cell viability (%)

| Compound | Reported metric | Unit tag | Quantitative result |
| --- | --- | --- | --- |
| COc1ccc2[nH]cc(CCNC(C)=O)c2c1 [Melatonin] | cell viability | % | 100 |
| CCN(CCCc1ccccc1)CCCc1ccccc1 [Alverine Citrate] | cell viability | % | 80.6 |
| Cc1nc(=O)c2cc(CN(C)c3ccc(C(=O)N[C@@H](CCC(=O)O)C(=O)O)s3)ccc2[nH]1 [Raltitrexed (Tomudex)] | cell viability | % | 58.7 |
| CC(C)[C@H](NC(=O)OCc1ccccc1)C(=O)N[C@@H](C)C(=O)N[C@@H](CC(=O)O)C(=O)CF | cell viability | % | 106 |
| COc1ccc(COc2ccc(Cc3cnc(N)nc3N)cc2OC)cc1 | cell viability | % | 80 |
| N#CC(=Cc1cn(-c2ccccc2)c2ccccc12)C(=O)O | cell viability | % | 93.5 |
| COc1cc(-c2oc3cc(O)cc(O)c3c(=O)c2OC2OC(COC3OC(C)C(O)C(O)C3O)C(O)C(O)C2OC2OC(C)C(O)C(O)C2O)ccc1O (stereo not drawn) [Typhaneoside] | cell viability | % | 98.7 |
| Nc1cc(F)ccc1NC(=O)/C=C/c1cnn(C/C=C/c2ccccc2)c1 | cell viability | % | 83.6 |
| Cc1onc(-c2c(Cl)cccc2Cl)c1C(=O)N[C@@H]1C(=O)N2[C@@H]1SC(C)(C)[C@@H]2C(=O)O [Dicloxacillin Sodium] | cell viability | % | 101 |
| CC(C)(C)c1ccc(S(=O)(=O)NCc2ccc(C(=O)Nc3cccnc3)cc2)cc1 | cell viability | % | 26.6 |
| O=c1cc(-c2ccc(OC3OC(CO)C(O)C(O)C3O)cc2)oc2c(C3OC(CO)C(O)C(O)C3O)c(O)cc(O)c12 (stereo not drawn) [4'-O-Glucosylvitexin] | cell viability | % | 101 |
| Cc1c[nH]c2nc(Nc3ccc(N4CCN(C)CC4)c(F)c3)nc(-c3cccc(CC#N)c3)c12 | cell viability | % | 4.64 |
| CCOc1ccccc1OC(c1ccccc1)C1CNCCO1 (stereo not drawn) [Reboxetine mesylate] | cell viability | % | 90.7 |
| C=CCS[S+]([O-])CC=C (stereo not drawn) [Allicin] | cell viability | % | 91.8 |
| CC(=O)Nc1ccccc1 [Acetanilide (Antifebrin)] | cell viability | % | 101 |
| CC=C(C)C(=O)O [Tiglic acid] | cell viability | % | 109 |
| CC1(C)C[C@@H]1C(=O)N/C(=C\CCCCSC[C@H](N)C(=O)O)C(=O)O [Cilastatin] | cell viability | % | 105 |
| O=C(Nc1c(Cl)cncc1Cl)c1ccc(OC(F)F)c(OCC2CC2)c1 [Roflumilast (Daxas)] | cell viability | % | 105 |

* * *

test system: MOLM14; assay: cell viability relative to vehicle control; higher = less cytotoxic; conditions: 10 µM; SRSF2 genotype: SRSF2 P95H/wt
Structures can show the parent of a compound that is named as a salt.
Property: cell viability; scope: individual compounds

| Compound | Unit tag | cell viability |
| --- | --- | --- |
| CCNC(=O)Nc1ccc(-c2nc3c(c(N4CCOC[C@@H]4C)n2)CCN(C2COC2)C3)cc1 | % | 37.4 |
| CN1CCC[C@@H]1CCO[C@](C)(c1ccccc1)c1ccc(Cl)cc1 [Clemastine Fumarate] | % | 71.3 |
| CCC(C)(C)c1ccc(CC(C)CN2C[C@@H](C)O[C@@H](C)C2)cc1 (some centres undefined) [Amorolfine Hydrochloride] | % | 81.8 |
| COc1ccc(COc2ccc(CC#N)cc2)cc1 | % | 114 |
| O=c1cc(N2CCOCC2)oc2c(-c3ccccc3)cccc12 | % | 51.5 |
| CC1(C)O[C@@H]2[C@@H](CO[C@@]3(COS(N)(=O)=O)OC(C)(C)O[C@@H]23)O1 [Topiramate] | % | 107 |
| CN1CCN(CCOc2cc(OC3CCOCC3)c3c(Nc4c(Cl)ccc5c4OCO5)ncnc3c2)CC1 | % | 50.3 |
| CC(=O)c1ccc(C)cc1O [2'-Hydroxy-4'-methylacetophenone] | % | 102 |
| C=C1C[C@@]23CC[C@H]4[C@@](C)(CCC[C@@]4(C)C(=O)O)[C@@H]2CC[C@@H]1C3 | % | 112 |
| COc1ccccc1OCC(O)CN1CCN(CC(=O)Nc2c(C)cccc2C)CC1 (centres undefined) [Ranolazine dihydrochloride] | % | 98.8 |
| Cc1cnc(Nc2ccc(OCCN3CCCC3)cc2)nc1Nc1cccc(S(=O)(=O)NC(C)(C)C)c1 | % | 0.67 |
| CN1C(=O)[C@@H](NC(=O)c2cc(Cc3ccccc3)on2)COc2ccccc21 | % | 110 |
| CC(C)(C#N)c1ccc(N2C(=O)OCc3cnc4ccc(-c5cnc6ccccc6c5)cc4c32)cc1 | % | 66 |
| O=c1cc(N2CCOCC2)oc2c(-c3cccc4c3sc3ccccc34)cccc12 | % | 60.5 |
| Cc1ccc(-c2n[nH]c3c2C(c2cccc(O)c2)N(c2ccc(C(=O)O)cc2)C3=O)cc1 (centres undefined) | % | 100 |
| CCN(CC)CCNC(=O)c1c(C)[nH]c(/C=C2\C(=O)Nc3ccc(-c4csc(-c5ccccc5)n4)cc32)c1C | % | 4.21 |
| O=c1cc(N2CCOCC2)oc2c(-c3ccc4c(c3)OCCO4)csc12 | % | 15.7 |
| CC(=O)OCC(CCn1cnc2cnc(N)nc21)COC(C)=O | % | 99.3 |
| CC(C)(C)c1cc(O)ccc1O | % | 48 |
| CCCc1nc2c(C)cc(-c3nc4ccccc4n3C)cc2n1Cc1ccc(-c2ccccc2C(=O)O)cc1 | % | 110 |
| CCCCC(=O)N(Cc1ccc(-c2ccccc2-c2nnn[nH]2)cc1)[C@H](C(=O)O)C(C)C | % | 104 |
| OC1CCC(Nc2ncc3nc(Nc4c(F)cc(F)cc4F)n([C@H]4CCOC4)c3n2)CC1 (some centres undefined) | % | 91.8 |
| CCCC1CC(C(=O)NC(C(C)Cl)C2OC(SC)C(O)C(O)C2O)N(C)C1 (centres undefined) [Clindamycin alcoholate] | % | 103 |
| N[C@@H](C(=O)N[C@@H]1C(=O)N2C(C(=O)O)=C(Cl)CS[C@H]12)c1ccccc1 | % | 108 |
| CC(C)=CCC[C@](C)(O[C@@H]1O[C@H](CO)[C@@H](O)[C@H](O)[C@H]1O)[C@H]1CC[C@]2(C)[C@@H]1[C@H](O)C[C@@H]1[C@@]3(C)CC[C@H](O)C(C)(C)[C@@H]3[C@@H](O[C@@H]3O[C@H](CO)[C@@H](O)[C@H](O)[C@H]3O)C[C@]12C [Ginsenoside Rg1] | % | 97.5 |
| O=C(O)c1ccc(C=C2SC(=S)N(c3cccc(C(F)(F)F)c3)C2=O)cc1 | % | 90.2 |
| Cc1c[nH]c(=O)[nH]c1=O | % | 109 |
| COc1ccc(CCNCC(O)COc2cccc(C)c2)cc1OC (centres undefined) [Bevantolol hydrochloride] | % | 90.6 |
| Cc1c(CN2CCC(Nc3ncnc4sc(CC(F)(F)F)cc34)CC2)ccc2[nH]c(C#N)cc12 | % | 4.02 |
| O=c1ccn(C2OC(CO)C(O)C2O)c(=O)[nH]1 (centres undefined) | % | 100 |
| CN(C)Cc1cccc(N=C(c2ccccc2)c2c(O)[nH]c3cc(C(N)=O)ccc23)c1 | % | 11 |
| COC1(c2sc3c(N4CCOCC4)nc(-c4cnc(N)nc4)nc3c2C)COC1 | % | 26.3 |
| O=C(/C=C/C=C/c1ccc2c(c1)OCO2)N1CCCCC1 | % | 106 |
| COc1ccc2cccc(CCNC(C)=O)c2c1 | % | 104 |
